- System: Pseudomonas aeruginosa
- Measurement Description: Antibacterial activity against Pseudomonas aeruginosa ATCC2785 assessed as bacterial growth inhibition after 24 hrs by broth dilution method
- Type: functional
- Conditions Used: ATCC2785, 24 h
Listed compounds paired with reported MIC
Measured Property: MIC

| Compound | Result |
| --- | --- |
| COC(=O)c1c(O)cc(OC)cc1/C=C/c1ccc(F)cc1 | > 128 µg/mL |
| COc1ccc(/C=C/c2cc(OC)c(CC=C(C)C)c(O)c2C(=O)O)cc1 | > 64 µg/mL |
| COC(=O)c1c(O)cc(OC)cc1/C=C/c1ccccc1F | 128 µg/mL |
| COc1cc(/C=C/c2ccccc2F)c(C(=O)O)c(O)c1CC=C(C)C | > 64 µg/mL |
| COC(=O)c1c(O)cc(OC)cc1/C=C/c1ccc(C(F)(F)F)cc1 | > 128 µg/mL |
| COC(=O)c1c(O)cc(OC)cc1/C=C/c1cccc(C#N)c1 | > 128 µg/mL |
| CC1(C)S[C@@H]2[C@H](NC(=O)Cc3ccccc3)C(=O)N2[C@H]1C(=O)O [PENICILLIN G] | 16 µg/mL |
| COc1cc(/C=C/c2ccc(Cl)cc2)c(C(=O)O)c(O)c1CC=C(C)C | > 64 µg/mL |
| COC(=O)c1c(O)cc(OC)cc1/C=C/c1cccc(F)c1 | 128 µg/mL |
| COC(=O)c1c(/C=C/c2ccccc2)cc(OC)c(CC=C(C)C)c1O | > 128 µg/mL |
| COc1cc(O)c(C(=O)O)c(/C=C/c2ccccc2)c1 | > 128 µg/mL |
| COc1ccc(/C=C/c2cc(OC)cc(O)c2C(=O)O)cc1 | > 128 µg/mL |
| COc1cc(/C=C/c2ccc(C)cc2)c(C(=O)O)c(O)c1CC=C(C)C | > 64 µg/mL |
| COC(=O)c1c(O)cc(OC)cc1/C=C/c1ccc(OC)cc1 | 128 µg/mL |
| COC(=O)c1c(O)cc(OC)cc1/C=C/c1ccc(C)cc1 | > 128 µg/mL |
| COc1cc(/C=C/c2ccc(F)cc2F)c(C(=O)O)c(O)c1CC=C(C)C | > 64 µg/mL |
| COC(=O)c1c(/C=C/c2cccc(C#N)c2)cc(OC)c(CC=C(C)C)c1O | > 128 µg/mL |
| COc1cc(/C=C/c2ccccc2)c(C(=O)O)c(O)c1CC=C(C)C | > 64 µg/mL |
| COc1cc(C)c(C(=O)O)c(O)c1CC=C(C)C | > 128 µg/mL |
| COC(=O)c1c(O)cc(OC)cc1/C=C/c1ccc(F)cc1F | > 128 µg/mL |
| COc1cc(/C=C/c2cc(OC)c(OC)c(OC)c2)c(C(=O)O)c(O)c1CC=C(C)C | > 64 µg/mL |
| COc1cc(O)c(C(=O)O)c(/C=C/c2cccc(F)c2)c1 | > 128 µg/mL |

Cited source for all entries: ChEMBL document CHEMBL3596195
